Tested on: E28 (patient-derived glioblastoma stem cells of classical subtype);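 further: cell Painting imaging in 384-well plates, CellProfiler features reduced to at least 20 principal components, Euclidean distance versus same-plate DMSO vehicle wells (0.1% v/v), median over six images per well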
experiment-notes: phenotypic distance (Euclidean, principal components) from DMSO controls (arbitrary units); higher = stronger morphological change
measurement-parameters: 333.3 nM; exposure time: 72 h
Where a name gives a salt, the structure may show the parent alone.
So I've got a bunch of molecules here, and I need their phenotypic distance values.
# respond with the number and nothing more

## Task Fill blank: measured phenotypic distance of the molecule CN1C(=O)[C@@]23C[C@]4([C@]56C[C@@]78SS[C@@](CO)(C(=O)N7[C@H]5Nc5ccccc56)N(C)C8=O)c5ccccc5N[C@@H]4N2C(=O)[C@]1(CO)SS3 [Chaetocin] is ____.
## Result 10.4

## Task Fill blank: measured phenotypic distance of the molecule CC1CNc2c(cccc2S(=O)(=O)N[C@@H](CCCNC(=N)N)C(=O)N2CC[C@@H](C)C[C@@H]2C(=O)O)C1 (stereo partly drawn) [Argatroban] is ____.
## Result 0.356

## Task Fill blank: measured phenotypic distance of the molecule Cc1cc(C(C)(C)CC(C)(C)C)ccc1OCCOCC[N+](C)(C)Cc1ccccc1 [Methyl benzethonium chloride] is ____.
## Result 1.63

## Task Fill blank: measured phenotypic distance of the molecule COc1nc(C)nc(Cl)c1NC1=NCCN1 [Moxonidine] is ____.
## Result 0.733

## Task Fill blank: measured phenotypic distance of the molecule O=C(C1CC1)N1CC[C@@H](Cc2n[nH]c(=O)n2-c2ccc(-c3ccc4occc4c3)cc2)C1 is ____.
## Result 3.55

## Task Fill blank: measured phenotypic distance of the molecule Nc1ccn([C@@H]2O[C@H](CO)[C@@H](O)C2(F)F)c(=O)n1 [Gemcitabine HCl] is ____.
## Result 3.31

## Task Fill blank: measured phenotypic distance of the molecule CC(C)C[C@H](NC(=O)CNC(=O)c1cc(Cl)ccc1Cl)B(O)O [Ixazomib] is ____.
## Result 6.98

## Task Fill blank: measured phenotypic distance of the molecule Cc1ccc(NC(=O)c2ccc3c(c2)OCCO3)cc1NC(=O)c1ccc2nc(OCCN3CCCC3)ccc2c1 is ____.
## Result 2.79

----------
So I've got a bunch of compounds here, and I need their surviving fraction values.
Test system: FT3469 (normal neural stem cell line);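 further: nuclei counted by high-content imaging of Hoechst-stained cells in laminin-coated 384-well plates, relative to 0.1% DMSO vehicle wells, with staurosporine as cell-death control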
experiment-notes: surviving fraction (nuclei count normalised to DMSO); higher = more cells surviving (less toxic)
measurement-parameters: 1000 nM; exposure time: 72 h
Structures can show the parent of a compound that is named as a salt.
# respond with the number and nothing more

## Task Fill blank: measured surviving fraction of the compound OCCN1CCN(CCCN2c3ccccc3Sc3ccc(Cl)cc32)CC1 is ____.
## Result 0.938

## Task Fill blank: measured surviving fraction of the compound Cc1c2ccncc2c(C)c2c1[nH]c1ccccc12 is ____.
## Result 0.787

## Task Fill blank: measured surviving fraction of the compound C[C@H]1Oc2cc(cnc2N)-c2c(nn(C)c2C#N)CN(C)C(=O)c2ccc(F)cc21 is ____.
## Result 1.06

## Task Fill blank: measured surviving fraction of the compound C/C=C1\NC(=O)[C@H]2CSSCC/C=C/[C@H](CC(=O)N[C@H](C(C)C)C(=O)N2)OC(=O)[C@H](C(C)C)NC1=O is ____.
## Result 0.123

## Task Fill blank: measured surviving fraction of the compound CC(=O)CC(c1ccc([N+](=O)[O-])cc1)c1c(O)c2ccccc2oc1=O (stereo not given) is ____.
## Result 0.849

## Task Fill blank: measured surviving fraction of the compound CC(C)C[C@H](NC(=O)[C@H](Cc1ccccc1)C[C@@H](O)[C@H](Cc1ccccc1)NC(=O)OC(C)(C)C)C(=O)N[C@@H](Cc1ccccc1)C(N)=O is ____.
## Result 0.867

## Task Fill blank: measured surviving fraction of the compound CCCCC1C(=O)N(c2ccccc2)N(c2ccc(O)cc2)C1=O (stereo not given) is ____.
## Result 0.989

## Task Fill blank: measured surviving fraction of the compound Clc1ccc(COC(Cn2ccnc2)c2ccc(Cl)cc2Cl)cc1 (stereo not given) [Econazole nitrate] is ____.
## Result 0.902

## Task Fill blank: measured surviving fraction of the compound CN[C@@H]1[C@@H](O)[C@@H](O[C@@H]2[C@@H](O)[C@H](O[C@H]3OC(CN)=CC[C@H]3N)[C@@H](N)C[C@H]2N)OC[C@]1(C)O [Sisomicin sulfate] is ____.
## Result 1.08

## Task Fill blank: measured surviving fraction of the compound Cn1ncnc1[C@H]1c2n[nH]c(=O)c3cc(F)cc(c23)N[C@@H]1c1ccc(F)cc1 is ____.
## Result 0.636

## Task Fill blank: measured surviving fraction of the compound Cc1ccc(NC(=O)c2ccc3c(c2)OCCO3)cc1NC(=O)c1ccc2nc(OCCN3CCCC3)ccc2c1 is ____.
## Result 0.602

## Task Fill blank: measured surviving fraction of the compound CCN(CC)CCCC(C)Nc1c2ccc(Cl)cc2nc2ccc(OC)cc12 (stereo not given) [Quinacrine dihydrochloride hydrate] is ____.
## Result 1.1

## Task Fill blank: measured surviving fraction of the compound CCn1cc(-c2ccnc3[nH]c(-c4cccc(CN(C)C)c4)cc23)c(-c2ccc(NC(=O)N(C)C)cc2)n1 is ____.
## Result 0.729

## Task Fill blank: measured surviving fraction of the compound C[C@H]1O[C@@H](O[C@H]2[C@@H](O)C[C@H](O[C@H]3[C@@H](O)C[C@H](O[C@H]4CC[C@@]5(C)[C@H](CC[C@@H]6[C@@H]5C[C@@H](O)[C@]5(C)[C@@H](C7=CC(=O)OC7)CC[C@]65O)C4)O[C@@H]3C)O[C@@H]2C)C[C@H](O)[C@@H]1O is ____.
## Result 0.577

## Task Fill blank: measured surviving fraction of the compound O=C(CCBr)N1CCN(C(=O)CCBr)CC1 is ____.
## Result 0.961

## Task Fill blank: measured surviving fraction of the compound CN(C)CCN(Cc1ccc(Cl)cc1)c1ccccn1 [Chloropyramine hydrochloride] is ____.
## Result 0.878

## Task Fill blank: measured surviving fraction of the compound Oc1ccc(OCc2ccccc2)cc1 is ____.
## Result 0.999

## Task Fill blank: measured surviving fraction of the compound CN(C(=O)CN(CCO)CC(=O)N(C)C(C)(C)Cc1ccccc1)C(C)(C)Cc1ccccc1 is ____.
## Result 1.1

## Task Fill blank: measured surviving fraction of the compound Nc1nc(=O)c2nc(CNc3ccc(C(=O)N[C@@H](CCC(=O)O)C(=O)O)cc3)cnc2[nH]1 is ____.
## Result 1.1

## Task Fill blank: measured surviving fraction of the compound O=C(/C=C/c1cccnc1)NCCCCC1CCN(C(=O)c2ccccc2)CC1 is ____.
## Result 0.892

## Task Fill blank: measured surviving fraction of the compound CCN1CCN(C(=O)Cc2ccc(Nc3ncc(F)c(Nc4ccc(C(=O)Nc5ccccc5Cl)cc4)n3)cc2)CC1 is ____.
## Result 0.483

## Task Fill blank: measured surviving fraction of the compound COC(=O)[C@@H]1[C@H]2C[C@H]3c4[nH]c5ccccc5c4CCN3C[C@@H]2CC[C@@H]1O [Yohimbine hydrochloride] is ____.
## Result 0.975

## Task Fill blank: measured surviving fraction of the compound C=CC(=O)Nc1cc(Nc2nccc(-c3cn(C)c4ccccc34)n2)c(OC)cc1N(C)CCN(C)C [Osimertinib mesylate] is ____.
## Result 1.07

## Task Fill blank: measured surviving fraction of the compound O=C1CCc2cc(OCCCCc3nnnn3C3CCCCC3)ccc2N1 is ____.
## Result 1.16

## Task Fill blank: measured surviving fraction of the compound NCc1ccccc1CC(=O)N[C@@H]1C(=O)N2C(C(=O)O)=C(CSc3nnnn3CC(=O)O)CS[C@H]12 [Ceforanide] is ____.
## Result 1.08
